molecular target: CYP3A4 (Homo sapiens); test: Determination of compound Kiapp against recombinant CYP3A4 enzyme (BFC fluorescent substrate); type: biochemical; settings: Super. enzyme preparation, read-out: Kiapp (BFC, Super.)
reported.endpoint: Ki (nM)
Number in nM, nothing else.

Task: Give Ki (CYP3A4 (Homo sapiens)) of the following molecule: COc1cncc(NS(=O)(=O)c2ccccc2C(=O)NCCc2ccc(C)c(F)c2F)c1 [Example 136]
Result: 4.8

Task: Missing value: Ki, CYP3A4 (Homo sapiens), entry CN(Cc1ccccc1)C(=O)c1ccccc1S(=O)(=O)N(C)c1cccnc1 [Example 355] . Fill in?
Result: 44.9

Task: Field: Ki (CYP3A4 (Homo sapiens)). Entry: CCOc1ccncc1NS(=O)(=O)c1ccccc1C(=O)N[C@@H](C)C(C)C [Example 107]
Result: 44

Task: # value lookup — system CYP3A4 (Homo sapiens), readout Ki, item COc1cncc(NS(=O)(=O)c2ccccc2C(=O)NC(C)(C)c2ccc(F)c(F)c2)c1 [Example 148]
Result: 4.9

Task: Look up Ki with CYP3A4 (Homo sapiens) for this molecule: COc1cncc(NS(=O)(=O)c2ccccc2C(=O)N2CCC(c3ccccc3)CC2)c1 [Example 231]
Result: 8.9

Task: Find the measured Ki: item COc1cncc(NS(=O)(=O)c2ccccc2C(=O)N(C)Cc2ccccc2)c1 [Example 372] , target or system CYP3A4 (Homo sapiens).
Result: 18

Task: Item: COc1ccc(CNC(=O)c2ccccc2S(=O)(=O)N(C)c2cccnc2)cc1 [Example 336] Test system: CYP3A4 (Homo sapiens) Read-out: Ki Value: ?
Result: 68.2

Task: Given the entry CCC(CC)NC(=O)c1ccccc1S(=O)(=O)Nc1cncc(OC)c1 [Example 193] , what Ki was observed with CYP3A4 (Homo sapiens)?
Result: 21.7

Task: Form field: Ki recorded for COc1cncc(NS(=O)(=O)c2ccccc2C(=O)NCCOC(C)C)c1 [Example 241] with CYP3A4 (Homo sapiens) (enter value)
Result: 97

Task: What Ki appears in the records for this molecule with CYP3A4 (Homo sapiens)? O=C(c1ccccc1S(=O)(=O)Nc1cccnc1)N1CCc2ccccc2C1 [Example 83]
Result: 12.8

Task: Item CCCCN(C)C(=O)c1ccccc1S(=O)(=O)Nc1cnccc1C [Example 230] with CYP3A4 (Homo sapiens) - Ki?
Result: 78.4

Task: Item Cc1cncc(NS(=O)(=O)c2ccccc2C(=O)NCc2ccc(C)c(F)c2)c1 [Example 157] with CYP3A4 (Homo sapiens) - Ki?
Result: 1.3

Task: Request - read-out Ki | tested on CYP3A4 (Homo sapiens) | molecule COc1cncc(NS(=O)(=O)c2ccccc2C(=O)N(C)CCC(C)C)c1 [Example 338]
Result: 6.8

Task: Request: Ki, test system CYP3A4 (Homo sapiens), entry CCCN(CC1CC1)C(=O)c1ccccc1S(=O)(=O)Nc1cncc(OC)c1 [Example 390]
Result: 1.78

Task: Field: Ki (CYP3A4 (Homo sapiens)). Entry: COCCNC(=O)c1ccccc1S(=O)(=O)Nc1cccnc1 [Example 261]
Result: 453

Task: CYP3A4 (Homo sapiens) / Ki / COc1cncc(NS(=O)(=O)c2ccccc2C(=O)NCCC2CCCN2C)c1 (stereo not drawn) [Example 387] : value?
Result: 224

Task: Value wanted: Ki (CYP3A4 (Homo sapiens)) of entry CCCCCN(C)C(=O)c1ccccc1S(=O)(=O)Nc1cncc(C)c1 [Example 341]
Result: 13.1

---

biological target: CYP3A4 (Homo sapiens); assay: Determination of IC50 against CYP3A4 by measurement of inhibition of midazolam metabolism (human liver microsomes, 1-hydroxymidazolam by LC-MS/MS); format: biochemical; parameters: 0.1 mg/mL human liver microsomes; settings: 2 μM midazolam, 0.1 mg/mL human liver microsomes
Rule: measured IC50 below 10 nM gets 1; anything equal to or greater than 10 nM gets -1.

Task: IC50 under 10 nM? Item: CCCN(CC1CC1)C(=O)c1ccccc1S(=O)(=O)N(C)c1cccnc1 [Example 337]
Result: -1

Task: Below 10 nM on IC50? Entry O=C(NCC1CC1)c1ccccc1S(=O)(=O)Nc1cccnc1 [Example 48]
Result: -1

Task: Input COc1cncc(NS(=O)(=O)c2ccccc2C(=O)NCCc2ccccc2F)c1 [Example 258] ; condition: IC50 strictly below 10 nM. Does it hold?
Result: 1

Task: Hello, is IC50 of the following compound strictly smaller than 10 nM? CCOc1ccncc1NS(=O)(=O)c1ccccc1C(=O)NCc1ccc(F)c(F)c1 [Example 252]
Result: 1

Task: Does this compound meet the criterion IC50 < 10 nM? COc1cncc(NS(=O)(=O)c2ccccc2C(=O)NCC2(O)C3CC4CC(C3)CC2C4)c1 (stereo not drawn) [Example 188]
Result: 1

Task: Please determine if COc1cncc(NS(=O)(=O)c2ccccc2C(=O)NCc2c(F)cccc2F)c1 [Example 207] is below 10 nM in terms of IC50.
Result: 1

Task: For CCCCCN(C)C(=O)c1ccccc1S(=O)(=O)Nc1cnccc1OC [Example 278] , is the recorded IC50 below the cut-off of 10 nM?
Result: -1

Task: Please state whether IC50 is below 10 nM for CCOc1ccncc1NS(=O)(=O)c1ccccc1C(=O)NCCc1ccccc1C [Example 269]
Result: 1

---

Exercise: for every item that follows, state its recorded IC50.
target: CYP3A4 (Homo sapiens, UniProt P08684); experiment: Determination of IC50 against CYP3A4 by measurement of inhibition of testosterone metabolism (human liver microsomes, 6-β-OH-testosterone by LC-MS/MS); type: biochemical; set-up: 0.1 mg/mL human liver microsomes; conditions: read-out: IC50 (Testo.)
Sequence (P08684 whole entry): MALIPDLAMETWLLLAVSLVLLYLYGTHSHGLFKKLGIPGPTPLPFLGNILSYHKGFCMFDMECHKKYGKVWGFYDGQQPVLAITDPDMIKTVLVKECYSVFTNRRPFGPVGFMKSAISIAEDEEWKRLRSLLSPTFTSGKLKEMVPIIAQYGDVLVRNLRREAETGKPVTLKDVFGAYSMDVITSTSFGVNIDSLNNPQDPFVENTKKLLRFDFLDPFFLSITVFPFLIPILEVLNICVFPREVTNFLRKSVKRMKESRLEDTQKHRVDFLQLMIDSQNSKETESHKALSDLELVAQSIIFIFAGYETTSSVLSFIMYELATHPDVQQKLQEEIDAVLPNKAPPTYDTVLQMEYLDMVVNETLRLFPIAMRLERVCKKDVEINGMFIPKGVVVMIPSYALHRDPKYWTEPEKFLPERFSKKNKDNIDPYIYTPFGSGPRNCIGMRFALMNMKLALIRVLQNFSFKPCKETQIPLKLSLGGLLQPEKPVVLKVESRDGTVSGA
Respond numerically; units are nM and should not be typed.

Task: IC50 for COc1cncc(NS(=O)(=O)c2ccccc2C(=O)NCCc2cccc(Cl)c2)c1 [Example 152] ?
Result: 23

Task: Give its IC50 value. Item: Cc1ccncc1NS(=O)(=O)c1ccccc1C(=O)NCc1ccc(S(C)(=O)=O)cc1 [Example 169]
Result: 395

Task: Which IC50 is listed for O=C(NCc1ccc2ncccc2c1)c1ccccc1S(=O)(=O)Nc1cccnc1 [Example 89] ?
Result: 60

Task: Quick one: IC50 of CCCCCNC(=O)c1ccccc1S(=O)(=O)N(C)c1cccnc1 [Example 340] ?
Result: 44

Task: Endpoint output: IC50 of COCCN(C(=O)c1ccccc1S(=O)(=O)Nc1cncc(OC)c1)C(C)C [Example 244] . Value?
Result: 52

Task: # query: IC50 of entry COc1cncc(NS(=O)(=O)c2ccccc2C(=O)N(C)Cc2ccccc2F)c1 [Example 198]
Result: 10

Task: Record request: IC50 value, item CN(c1cccnc1)S(=O)(=O)c1ccccc1C(=O)NCc1cccc(F)c1 [Example 357]
Result: 43

Task: # IC50 lookup, item Cc1ccncc1NS(=O)(=O)c1ccccc1C(=O)NCCC(C)C [Example 179]
Result: 58

Task: // IC50 lookup, key: Cc1ccncc1NS(=O)(=O)c1ccccc1C(=O)NCCOc1ccccc1 [Example 171]
Result: 38

Task: Recorded IC50 of CN(c1cccnc1)S(=O)(=O)c1ccccc1C(=O)N1CCCC(C)(C)C1 [Example 345] , please.
Result: 48

Task: Looking for the measured IC50 of COc1cncc(NS(=O)(=O)c2ccccc2C(=O)NCc2cccc(Cl)c2F)c1 [Example 175] , can you help?
Result: 9

Task: Quick check: IC50 of O=C(NC1CCC1)c1ccccc1S(=O)(=O)Nc1cccnc1 [Example 65] ?
Result: 214

Task: What value of measured IC50 is listed for COc1cncc(NS(=O)(=O)c2ccc(OCCN3CCOCC3)cc2C(=O)NCc2ccc(F)cc2)c1 [Example 265] ?
Result: 41

Task: Given the entry COc1cncc(NS(=O)(=O)c2ccccc2C(=O)N2CCCC(C)(C)C2)c1 [Example 391] , report its measured IC50.
Result: 63

Task: Can you share its IC50? I mean this compound: Cc1cncc(NS(=O)(=O)c2ccccc2C(=O)NCc2ccc(C)c(F)c2)c1 [Example 157]
Result: 8

Task: Field request: IC50 | item: CCCCCN(C)C(=O)c1ccccc1S(=O)(=O)Nc1cnccc1OC [Example 278]
Result: 66

Task: What does the data say about its IC50? Entry: CCCN(CCOC)C(=O)c1ccccc1S(=O)(=O)Nc1cncc(OC)c1 [Example 246]
Result: 72

Task: Quick one: IC50 for Cc1cncc(NS(=O)(=O)c2ccccc2C(=O)NCCc2ccccc2F)c1 [Example 227] ?
Result: 11

Task: So what's the measured IC50 for this one? CCCN(CC)C(=O)c1ccccc1S(=O)(=O)Nc1cncc(OC)c1 [Example 195]
Result: 32

Task: Suppose we examine the compound Cc1cncc(NS(=O)(=O)c2ccccc2C(=O)N2CCC(C)CC2)c1 [Example 363] ; what IC50 value has been reported?
Result: 76

Task: Need IC50, item COc1cncc(NS(=O)(=O)c2ccccc2C(=O)N[C@@H](C)C(C)(C)C)c1 [Example 210]
Result: 49

Task: Suppose we examine the compound COc1cncc(NS(=O)(=O)c2ccccc2C(=O)NCC2CCCCC2)c1 [Example 200] ; what IC50 value has been reported?
Result: 21

Task: Recorded IC50 of CCOc1cncc(NS(=O)(=O)c2ccccc2C(=O)NCCc2ccccc2C)c1 [Example 292] , please.
Result: 16

Task: Given the compound COc1cncc(NS(=O)(=O)c2ccccc2C(=O)N[C@H](CO)CC2CCCCC2)c1 [Example 190] , what is its reported IC50?
Result: 16

Task: Fill in: IC50 of CCCCNC(=O)c1ccccc1S(=O)(=O)Nc1cncc(OC)c1 [Example 17] is ___
Result: 62

Task: What does the data say about its IC50? Entry: COc1cccc(CNC(=O)c2ccccc2S(=O)(=O)Nc2cccnc2)c1 [Example 46]
Result: 23

Task: Please look up its IC50: COc1cncc(NS(=O)(=O)c2ccccc2C(=O)NC2CCC(C)CC2)c1 (centres unmarked) [Example 149]
Result: 21

Task: What does the data say about its IC50? Entry: Cc1ccc(CNC(=O)c2ccccc2S(=O)(=O)Nc2cccnc2)cc1 [Example 79]
Result: 177

Task: IC50 for COc1cncc(NS(=O)(=O)c2ccccc2C(=O)N(C)CCc2ccccc2)c1 [Example 370] ?
Result: 8

Task: What value of measured IC50 is listed for O=C(NCc1cccc2[nH]ccc12)c1ccccc1S(=O)(=O)Nc1cccnc1 [Example 52] ?
Result: 73
